Values from ChEMBL document CHEMBL1165965

target-or-system: Receptor-type tyrosine-protein kinase FLT3 (Homo sapiens) (UniProt P36888)
Sequence (P36888 whole entry): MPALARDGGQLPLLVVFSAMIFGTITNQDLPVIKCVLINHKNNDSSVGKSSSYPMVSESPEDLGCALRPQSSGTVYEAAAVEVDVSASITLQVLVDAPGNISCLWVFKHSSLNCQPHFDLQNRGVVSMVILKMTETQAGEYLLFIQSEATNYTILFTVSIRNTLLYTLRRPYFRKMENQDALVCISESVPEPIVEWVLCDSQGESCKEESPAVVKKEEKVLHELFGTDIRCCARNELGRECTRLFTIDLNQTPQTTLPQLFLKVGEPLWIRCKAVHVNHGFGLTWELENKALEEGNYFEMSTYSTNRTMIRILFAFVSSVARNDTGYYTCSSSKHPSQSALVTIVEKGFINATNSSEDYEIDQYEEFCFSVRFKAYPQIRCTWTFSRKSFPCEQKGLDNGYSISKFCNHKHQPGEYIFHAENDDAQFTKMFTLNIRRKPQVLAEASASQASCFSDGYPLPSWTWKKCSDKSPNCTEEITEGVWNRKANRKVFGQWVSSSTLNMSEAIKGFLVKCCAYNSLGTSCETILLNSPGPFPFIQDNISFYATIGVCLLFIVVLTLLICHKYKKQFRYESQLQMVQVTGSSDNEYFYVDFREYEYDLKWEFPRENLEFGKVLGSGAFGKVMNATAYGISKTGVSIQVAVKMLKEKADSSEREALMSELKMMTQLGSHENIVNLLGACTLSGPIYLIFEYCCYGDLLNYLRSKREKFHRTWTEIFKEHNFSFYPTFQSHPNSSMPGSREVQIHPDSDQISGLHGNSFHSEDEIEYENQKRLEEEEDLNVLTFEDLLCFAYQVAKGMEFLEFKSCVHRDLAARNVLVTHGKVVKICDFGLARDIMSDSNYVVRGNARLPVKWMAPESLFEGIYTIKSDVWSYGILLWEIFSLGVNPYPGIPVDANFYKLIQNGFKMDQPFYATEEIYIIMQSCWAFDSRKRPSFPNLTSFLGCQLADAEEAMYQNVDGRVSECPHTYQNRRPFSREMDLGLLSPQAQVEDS
experiment: Inhibition of FLT3 at 1 uM
metric-name: inhibition (%)

CN1CCN(c2ccc(-c3cnc4c(c3)N(Cc3cc(Cl)ccc3C(F)(F)F)CCN4)cn2)CC1; 88
COC1CCN(C(=O)c2ccc(-c3cnc4c(c3)N(Cc3cc(Cl)ccc3C(F)(F)F)CCN4)cc2)CC1; 80.7
CN1CCN(c2ccc(-c3cnc4c(c3)N(Cc3cc(Cl)ccc3Cl)CCN4)cn2)CC1; 90

* * *

Test system: Hepatocyte growth factor receptor (Homo sapiens), P08581 [Y1235D]
Sequence (P08581 whole entry Y1235D): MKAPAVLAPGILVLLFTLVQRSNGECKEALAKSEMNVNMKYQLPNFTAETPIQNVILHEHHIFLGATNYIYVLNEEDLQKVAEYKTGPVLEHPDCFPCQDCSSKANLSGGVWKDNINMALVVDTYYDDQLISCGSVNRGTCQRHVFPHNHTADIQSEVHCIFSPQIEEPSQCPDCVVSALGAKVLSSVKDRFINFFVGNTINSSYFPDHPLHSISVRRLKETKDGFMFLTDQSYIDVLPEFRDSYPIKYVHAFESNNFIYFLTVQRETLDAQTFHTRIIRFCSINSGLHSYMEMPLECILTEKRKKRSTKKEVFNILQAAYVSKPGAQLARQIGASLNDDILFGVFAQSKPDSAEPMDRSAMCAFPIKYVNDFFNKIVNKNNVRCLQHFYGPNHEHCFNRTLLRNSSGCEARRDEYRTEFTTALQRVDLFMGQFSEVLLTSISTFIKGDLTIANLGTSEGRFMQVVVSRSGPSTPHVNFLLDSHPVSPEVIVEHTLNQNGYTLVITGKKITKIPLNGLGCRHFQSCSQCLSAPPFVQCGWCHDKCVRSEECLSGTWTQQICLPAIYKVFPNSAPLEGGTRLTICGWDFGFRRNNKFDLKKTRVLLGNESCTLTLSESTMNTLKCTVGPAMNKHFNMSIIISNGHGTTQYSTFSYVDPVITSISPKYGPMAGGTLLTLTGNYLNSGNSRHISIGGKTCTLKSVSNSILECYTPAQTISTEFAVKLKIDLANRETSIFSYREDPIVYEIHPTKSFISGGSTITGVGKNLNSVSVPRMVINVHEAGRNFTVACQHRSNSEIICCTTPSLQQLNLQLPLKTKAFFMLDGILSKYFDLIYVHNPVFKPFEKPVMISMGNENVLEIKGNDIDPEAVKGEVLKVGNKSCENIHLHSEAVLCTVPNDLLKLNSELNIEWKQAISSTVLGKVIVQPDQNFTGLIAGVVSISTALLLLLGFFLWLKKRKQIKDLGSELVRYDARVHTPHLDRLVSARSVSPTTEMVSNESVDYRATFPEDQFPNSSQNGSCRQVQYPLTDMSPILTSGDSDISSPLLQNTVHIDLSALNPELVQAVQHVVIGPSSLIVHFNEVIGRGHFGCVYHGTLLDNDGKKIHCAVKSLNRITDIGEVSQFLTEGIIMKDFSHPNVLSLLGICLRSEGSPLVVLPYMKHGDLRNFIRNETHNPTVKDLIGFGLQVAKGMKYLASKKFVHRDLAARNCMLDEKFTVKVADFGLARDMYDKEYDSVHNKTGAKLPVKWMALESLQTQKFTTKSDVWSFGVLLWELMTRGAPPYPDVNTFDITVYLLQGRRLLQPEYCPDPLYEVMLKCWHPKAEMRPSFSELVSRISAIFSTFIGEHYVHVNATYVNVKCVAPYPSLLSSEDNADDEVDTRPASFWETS
experiment: Inhibition of MET Y1235D mutant at 1 uM
metric-name: inhibition

CN1CCN(c2ccc(-c3cnc4c(c3)N(Cc3cc(Cl)ccc3C(F)(F)F)CCN4)cn2)CC1; < 50%

Input line: State the recorded inhibition for this entry: CN1CCN(c2ccc(-c3cnc4c(c3)N(Cc3cc(Cl)ccc3Cl)CCN4)cn2)CC1
Output line: < 50%

Input line: Query (molecule): CN1CCN(c2ccc(-c3cnc4c(c3)N(Cc3cc(F)ccc3F)CCN4)cn2)CC1 ; field requested: inhibition
Output line: < 50%
